Where these numbers come from: the RNAGym collection of RNA variant scans (doi:10.1002/anie.201605470)

B1: Osa-1-4 twister ribozyme (parent)
chain: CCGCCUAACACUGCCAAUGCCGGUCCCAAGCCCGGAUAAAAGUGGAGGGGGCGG

Variants of: B1
Test: self-cleavage, relative activity (ratio to wild type); higher = more cleavage; co-transcriptional
MEASUREMENT NAME: self-cleavage
// keep it numeric: no unit symbol after the value

The value of self-cleavage measured for the variant CCGCCUAACACUGCCAAUGCCGGUCCCAAUCGCGGAUAAAAGUGGAGGGGGCGG [C32G G30U] turned out to be 0.02

The value of self-cleavage measured for the variant CCGCCUAACACUGCCAAUACCGUUCCCAAGCCCGGAUAAAAGUGGAGGGGGCGG [G19A G23U] turned out to be 0.05

The value of self-cleavage measured for the variant CCGCCUAACACUGCCAAUACCGGUCCCAAGCCCGGAUAAAAGUGGAGGGGGGGG [C52G G19A] turned out to be 0.55

The value of self-cleavage measured for the variant CCGCCUAACACUGCCAAUGCCGUUCCCAAGCCCGGAUAAAAGUGGAGGGGUCGG [G23U G51U] turned out to be 0.04

The value of self-cleavage measured for the variant CCGCCUAACACUGCCAAUGCCGGUCCCACGCCCGGAUAAAAGUGGAUGGGGCGG [A29C G47U] turned out to be 0.03

The value of self-cleavage measured for the variant CCGCCUAACACUGCCAAUGCCGGUCCCAAGGCCGGAUAAAAGUGGAGGGGACGG [C31G G51A] turned out to be 0.08

The value of self-cleavage measured for the variant CCGCCUAACCCUGCCAAUGCCGGUCCCAAGCCUGGAUAAAAGUGGAGGGGGCGG [A10C C33U] turned out to be 0.04

The value of self-cleavage measured for the variant CCGCCUAACACUGCCAGUGCCGGUCCGAAGCCCGGAUAAAAGUGGAGGGGGCGG [A17G C27G] turned out to be 0.13

The value of self-cleavage measured for the variant CCGCCUAACACUGCCAAUGCCGGACUCAAGCCCGGAUAAAAGUGGAGGGGGCGG [C26U U24A] turned out to be 0.06

The value of self-cleavage measured for the variant CCGCCUAACACCGCCAAUGCCGGUGCCAAGCCCGGAUAAAAGUGGAGGGGGCGG [C25G U12C] turned out to be 0.05

The value of self-cleavage measured for the variant CCGCCUAACACUGACUAUGCCGGUCCCAAGCCCGGAUAAAAGUGGAGGGGGCGG [A16U C14A] turned out to be 0.05

The value of self-cleavage measured for the variant CCGCCUAACACUGCGAAUGCCGGUCCCAAGCCCGAAUAAAAGUGGAGGGGGCGG [C15G G35A] turned out to be 0.38

The value of self-cleavage measured for the variant CCGCCUAACACUGCCAAUGCCGGCCCCAAGCCCGGAUAAGAGUGGAGGGGGCGG [A40G U24C] turned out to be 0.08

The value of self-cleavage measured for the variant CCGCCUAAGACUGCCAAUGCCGGUCCUAAGCCCGGAUAAAAGUGGAGGGGGCGG [C27U C9G] turned out to be 0.09

The value of self-cleavage measured for the variant CCGCCUAACUCUGCCAAUGACGGUCCCAAGCCCGGAUAAAAGUGGAGGGGGCGG [A10U C20A] turned out to be 0.05

The value of self-cleavage measured for the variant CCGCCUAACACUGCCAAUGCCGGUCCCAAGCCCGGAUAAAAGUUGAGGGAGCGG [G44U G50A] turned out to be 0.58

The value of self-cleavage measured for the variant CCGCCUAACACUGCCAAUGCCGGUCCCAAGCCCAGAUAAAAGGGGAGGGGGCGG [G34A U43G] turned out to be 0.1

The value of self-cleavage measured for the variant CCGCCUAACACUGCCAAUGCCCGUCCCAAGCCCGGAUAAAAGUGGAAGGGGCGG [G22C G47A] turned out to be 0.03

The value of self-cleavage measured for the variant CCGCCUAACACUGCCAAUGCCGGUCCCAAGCCCGGAUAAUAGUGGAGGCGGCGG [A40U G49C] turned out to be 0.05

The value of self-cleavage measured for the variant CCGCCUAACACUGCCAAUGCCCGUCCCAAGCCCGUAUAAAAGUGGAGGGGGCGG [G22C G35U] turned out to be 0.04

The value of self-cleavage measured for the variant CCGCCUAACACUGCCAAUGACGGUCCAAAGCCCGGAUAAAAGUGGAGGGGGCGG [C20A C27A] turned out to be 0.34

The value of self-cleavage measured for the variant CCGCCUAACACUGCCAAUGCCGGUCACAAGCCCGGAUAAAAGUGGAGGGGGCCG [C26A G53C] turned out to be 0.02

The value of self-cleavage measured for the variant CCGCCUAACACUGCCAAUGCCGGUCCCAAGCCUGGACAAAAGUGGAGGGGGCGG [C33U U37C] turned out to be 0.88

The value of self-cleavage measured for the variant CCGCCUAACCCUGCCAAUGCCGGUCCCAAGCCCGGUUAAAAGUGGAGGGGGCGG [A10C A36U] turned out to be 0.09

The value of self-cleavage measured for the variant CCGCCUAACACAGCCAAUGCCGGUCCGAAGCCCGGAUAAAAGUGGAGGGGGCGG [C27G U12A] turned out to be 0.05

The value of self-cleavage measured for the variant CCGCCUAACACUACCAAUGCCGGUCCCAAGCCCGGAUAAAAGUGGAGGGGUCGG [G13A G51U] turned out to be 0.04

The value of self-cleavage measured for the variant CCGCCUAACACUGCCAAUGACGGUCCCAAGCCCGGAUAAAAGUGCAGGGGGCGG [C20A G45C] turned out to be 0.05

The value of self-cleavage measured for the variant CCGCCUCACACUGCCAAUGCCGGUCCCAAGCCCGGAUAAAAGUGAAGGGGGCGG [A7C G45A] turned out to be 0.03

The value of self-cleavage measured for the variant CCGCCUAACAUUGCUAAUGCCGGUCCCAAGCCCGGAUAAAAGUGGAGGGGGCGG [C11U C15U] turned out to be 0.13

The value of self-cleavage measured for the variant CCGCCUAACACUGCCAAUGCCGGUCCCAAGCCCGGAUAAAAGUGGAGGUGGGGG [C52G G49U] turned out to be 0.13

The value of self-cleavage measured for the variant CCGCCUAACACUGCAAAUGCCGGUCCCAAGCCCGGAUAAAAGUGGUGGGGGCGG [A46U C15A] turned out to be 0.05

The value of self-cleavage measured for the variant CCGCCUAACACGGGCAAUGCCGGUCCCAAGCCCGGAUAAAAGUGGAGGGGGCGG [C14G U12G] turned out to be 0.06

The value of self-cleavage measured for the variant CCGCCUAACACUGCCAAUGCCGGUCCCAAGCCCGGAUAAAUGUGGAGGGGGCGC [A41U G54C] turned out to be 0.93

The value of self-cleavage measured for the variant CCGCCUAACACUGCCAAUGCCGGUCCCAAACCCAGAUAAAAGUGGAGGGGGCGG [G30A G34A] turned out to be 0.11

The value of self-cleavage measured for the variant CCGCCUAACACCGCCAAUGCCGGUCCCAAGCCCGGAUAAAAGUGGAGGUGGCGG [G49U U12C] turned out to be 0.04

The value of self-cleavage measured for the variant CCGCCUAACACUGCCAAUGCCGGUCCCAAGCCCGGAUAAAAGUGGAGGGGACGC [G51A G54C] turned out to be 0.95

The value of self-cleavage measured for the variant CCGCCUAACACUGCCAAUGCCGGUCCCAAGCCCCGAUAUAAGUGGAGGGGGCGG [A39U G34C] turned out to be 0.25

The value of self-cleavage measured for the variant CCGCCUAACACUGCCAAUGCCGGUCCCACGCCCGGAUAAAAGUGGAGGGAGCGG [A29C G50A] turned out to be 0.05

The value of self-cleavage measured for the variant CCGCCUAACACUGCCAAGGCCCGUCCCAAGCCCGGAUAAAAGUGGAGGGGGCGG [G22C U18G] turned out to be 0.17

The value of self-cleavage measured for the variant CCGCCUAACACUGCCAAUGCCGGUCCCAAGCCCGGAUAAAAGUGGAAGGGGAGG [C52A G47A] turned out to be 0.22

The value of self-cleavage measured for the variant CCGCCUAACACUGCCAAUGCAGGUCCCAAGCCCGGAUAAAAGUGGAGCGGGCGG [C21A G48C] turned out to be 0.07

The value of self-cleavage measured for the variant CCGCCUAACACCGCCAAUGCAGGUCCCAAGCCCGGAUAAAAGUGGAGGGGGCGG [C21A U12C] turned out to be 0.14

The value of self-cleavage measured for the variant CCGCCUAACACGGCCAAUGCCGGUCCCAAGCCCGGAUAAUAGUGGAGGGGGCGG [A40U U12G] turned out to be 0.36

The value of self-cleavage measured for the variant CCGCCUAACACUGCCAAUGCCGGUCCCAAGCCCGGAUAAAAGUCGAGGGGGCUG [G44C G53U] turned out to be 0.38

The value of self-cleavage measured for the variant CCGCCUAACACUGACAAUGCCGGUCCCAAGCCCGGAUAAAAGUGGAGGGGUCGG [C14A G51U] turned out to be 0.04

The value of self-cleavage measured for the variant CCGCCUAACACUGCCAAUGCCGGGCCCAAGCCCGGAUAAAAGUGAAGGGGGCGG [G45A U24G] turned out to be 0.02
